Each recorded value in this set is attributed to patent US9464092B2.

# system_tested: CDK2/CyclinE (Homo sapiens (Human))
# assay: CDK2/CyclinE kinase assay (Nanosyn, Caliper microfluidic)
# Format: biochemical
# settings: Table 2
endpoint: Fold Selectivity (CDK2/CycE/CDK4)

Solved entries (count: 3):
INSERT INTO measurements (molecule, result_value) VALUES
  ('C[C@@H]1CN(c2ccc(Nc3ncc4cc5n(c4n3)C3(CCCCC3)CNC5=O)nc2)C[C@H](C)N1C[C@@H](C)O', 1863),
  ('C[C@H]1CN(c2ccc(Nc3ncc4cc5n(c4n3)C3(CCCCC3)CNC5=O)nc2)CCN1C', 3918),
  ('O=C1NCC2(CCCCC2)n2c1cc1cnc(Nc3ccc(C(=O)N4CCN(C5CCC5)CC4)cn3)nc12', 103);

(1) CC1CN(c2ccc(Nc3ncc4cc5n(c4n3)C3(CCCC3)CNC5=O)nc2)CCN1CC1CC1 (stereo not drawn)
(2) C[C@H]1CN(c2ccc(Nc3ncc4cc5n(c4n3)C3(CCCCC3)CNC5=O)nc2)CCN1
Which has the higher Fold Selectivity (CDK2/CycE/CDK4), 1 or 2 ? Give the label under which the chosen entry appears.
1

(A) CCN1[C@H](C)CN(c2ccc(Nc3ncc4cc5n(c4n3)C3(CCCCC3)CNC5=O)nc2)C[C@@H]1C
(B) CCC(C)CN1CCN(c2ccc(Nc3ncc4cc5n(c4n3)C3(CCCC3)CNC5=O)nc2)CC1 (stereo not drawn) [FFF]
(C) CN(C)C1CCN(c2ccc(Nc3ncc4cc5n(c4n3)C3(CCCC3)CNC5=O)nc2)CC1
(D) CC1CN(c2ccc(Nc3ncc4cc5n(c4n3)C3(CCCC3)CNC5=O)nc2)CC(C)N1CCC(C)(C)C (stereo not drawn)
(E) O=C1NCC2(CCCCC2)n2c1cc1cnc(Nc3ccc(N4CCC(N5CCC(C(F)(F)F)CC5)CC4)cn3)nc12
Arrange these molecules by their Fold Selectivity (CDK2/CycE/CDK4), starting with the largest number. Please, when replying, give the labels in the order that was requested.
D, E, A, C, B
(D: 21263, E: 12975, A: 3949, C: 1490, B: 966)

(I) CCN(CC)C1CCN(C2CCN(c3ccc(Nc4ncc5cc6n(c5n4)C4(CCCCC4)CNC6=O)nc3)CC2)C1 (stereo not drawn)
(II) CC1(C)CN(c2ccc(Nc3ncc4cc5n(c4n3)C3(CCCCC3)CNC5=O)nc2)CCN1C1CC1
(III) C[C@H]1CN(c2ccc(Nc3ncc4cc5n(c4n3)C3(CCCCC3)CNC5=O)nc2)CCN1CC1CC1
Arrange these molecules by their Fold Selectivity (CDK2/CycE/CDK4), starting with the largest number. Please, when replying, give the labels in the order that was requested.
III, II, I
(III: 6862, II: 2017, I: 1374)

(A) C[C@@H]1CN(c2ccc(Nc3ncc4cc5n(c4n3)C3(CCCCC3)CNC5=O)nc2)CCN1C
(B) CCC(C)CN1CCN(c2ccc(Nc3ncc4cc5n(c4n3)C3(CCCC3)CNC5=O)nc2)CC1 (stereo not drawn) [AAA]
(C) C[C@@H]1CN(c2ccc(Nc3ncc4cc5n(c4n3)C3(CCCCC3)CNC5=O)nc2)C[C@H](C)N1C
Arrange these molecules by their Fold Selectivity (CDK2/CycE/CDK4), starting with the largest number. Please, when replying, give the labels in the order that was requested.
C, B, A
(C: 5200, B: 2591, A: 1274)

(I) CC1CN(c2ccc(Nc3ncc4cc5n(c4n3)C3(CCCCC3)CNC5=O)nc2)CCN1CC(C)(C)O (stereo not drawn)
(II) CC1(C)CN(c2ccc(Nc3ncc4cc5n(c4n3)C3(CCCCC3)CNC5=O)nc2)CCN1CC1CC1
Which has the higher Fold Selectivity (CDK2/CycE/CDK4), I or II ? Give the label under which the chosen entry appears.
I
(I: 1481, II: 1013)

(1) CCC(C)CN1[C@H](C)CN(c2ccc(Nc3ncc4cc5n(c4n3)C3(CCCC3)CNC5=O)nc2)C[C@@H]1C (stereo partly drawn)
(2) CC1(C)CN(c2ccc(Nc3ncc4cc5n(c4n3)C3(CCCCC3)CNC5=O)nc2)CCN1
Which has the higher Fold Selectivity (CDK2/CycE/CDK4), 1 or 2 ? Give the label under which the chosen entry appears.
1
(1: 1620, 2: 1065)
